target.of.assay: mLPCAT1 (Mus musculus, UniProt Q3TFD2)
Construct: expressed in transfected cells; host or cells: CHO-S-PAFR cells, microsomal fraction
Sequence (Q3TFD2 1-534): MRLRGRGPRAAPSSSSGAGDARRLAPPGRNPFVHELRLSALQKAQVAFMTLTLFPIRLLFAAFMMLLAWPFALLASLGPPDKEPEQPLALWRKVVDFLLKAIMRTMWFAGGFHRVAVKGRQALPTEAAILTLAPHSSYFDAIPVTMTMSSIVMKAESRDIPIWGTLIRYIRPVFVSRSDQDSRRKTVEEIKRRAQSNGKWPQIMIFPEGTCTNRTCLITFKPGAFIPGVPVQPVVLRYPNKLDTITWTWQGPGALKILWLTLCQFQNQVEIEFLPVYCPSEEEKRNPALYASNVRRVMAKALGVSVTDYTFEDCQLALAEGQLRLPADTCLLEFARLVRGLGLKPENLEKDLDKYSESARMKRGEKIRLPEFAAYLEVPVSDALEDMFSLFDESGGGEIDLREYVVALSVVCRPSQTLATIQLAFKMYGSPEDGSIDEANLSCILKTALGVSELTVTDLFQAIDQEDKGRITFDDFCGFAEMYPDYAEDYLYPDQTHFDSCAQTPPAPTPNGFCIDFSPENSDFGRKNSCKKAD
assay.remarks: acyltransferase activity assay, DPPC product
Assay type: biochemical
settings: 20 μM compound; microsomal fractions of nonstimulated CHO-S-PAFR cells; n = 3, mean ± SEM
Below, each entry is listed alongside its reported percentage inhibition, product DPPC, mLPCAT1.
Report as a plain number; the unit percentage is understood.

Examples with answers:
- query.smiles: "CC(C)OC(=O)c1ccc(N2C(=O)C(Cl)=C(Cl)C2=O)cc1"
  test.value: 28.2
- query.smiles: "CCCOC(=O)c1ccc(N2C(=O)C(Cl)=C(Cl)C2=O)cc1"
  test.value: 14.8
- query.smiles: "CC(C)OC(=O)c1ccc(N2C(=O)C(Cl)=C(Nc3ccccc3O)C2=O)cc1"
  test.value: 36.3

Attention now shifts to the item below.
Reported percentage inhibition, product DPPC, mLPCAT1 for CCCCOC(=O)c1ccc(N2C(=O)C(Cl)=C(Cl)C2=O)cc1 : what is it? 12.2
